measured_target: UniProt:Q54436
protocol: Fluorescence binding assay (steady-state titration of PAH with RHCC-NT)
test_settings: ∆G = RT ln (Kd)
measure_name: ∆G, molar Gibbs free energy for the ligand binding (kcal/mol)
Report the figure in kcal/mol without appending any unit label.

Known results for compounds:
compound	value_reported
c1cc2c3c(cccc3c1)CC2 [Acenaphthene, acenaphthene]	-6.84
c1ccc2cc3ccccc3cc2c1 [Anthracene, anthracene]	-6.86
c1cc2ccc3cccc4ccc(c1)c2c34 [Pyrene, pyrene]	-6.12
C1=Cc2cccc3cccc1c23 [Acenaphthylene, acenaphthylene]	-6.09
c1ccc2c(c1)ccc1c3ccccc3ccc21 [Chrysene, chrysene]	-6.19

# input Return reported ∆G, molar Gibbs free energy for the ligand binding; argument: c1ccc2ccccc2c1 [Naphthalene, naphthalene]
# output -6.48

# input Can you check c1ccc2c(c1)Cc1ccccc1-2 [Fluorene, fluorene] next?
# output -7.15

###

measured_target: UniProt Q54436
Overview of recorded pKd for various compounds
A value of pKd is the negative decimal logarithm of a concentration given in moles per litre.

Known results for compounds:
record_smiles	measured_target	pKd
c1ccc2ccccc2c1	UniProt Q54436	4.77
c1ccc2c(c1)Cc1ccccc1-2	UniProt Q54436	5.27
c1cc2c3c(cccc3c1)CC2	UniProt Q54436	5.05
c1ccc2cc3ccccc3cc2c1	UniProt Q54436	5.06

# input Provide the documented pKd with UniProt Q54436 as the system for c1cc2ccc3cccc4ccc(c1)c2c34
# output 4.52

# input Can you check c1ccc2c(c1)ccc1c3ccccc3ccc21 next?
# output 4.57

# input Can you check C1=Cc2cccc3cccc1c23 next?
# output 4.49

Origin of measurements: paper PMC6355809
